Tested on: Trypanosoma cruzi amastigotes cultured in 3T3 fibroblast cells
Experiment: Assay for proliferation of kinetoplastid parasite Trypanosoma cruzi (beta-galactosidase/CPRG readout)
Assay type: cell-based
Details: NIH3T3, 144 h, Tulahuen strain in 3T3 cells, 6 day incubation, read-out: T cruzi EC50
Excerpt: Compounds of the invention can be assayed to measure their capacity to inhibit proliferation of kinetoplastid parasite Trypanosoma cruzi. The screening procedure is for identifying compounds with inhibitor activity against Trypanosoma cruzi amastigotes cultured in 3T3 fibroblast cells. […] This allows for a colorimetric readout by using the substrate CPRG and an absorbance plate reader. […]
Listed here are compounds together with their documented log10 of EC50.
Could you please treat all values as log10 of EC50 in µM?

Any idea what log10 of EC50 was measured for `CC(C)(C)OC(=O)NCCC(=O)Nc1cnc2nc(-c3cc(NC(=O)c4ccc(F)o4)ccc3Cl)[nH]c2c1` ?
0.88

Can you check `CC(C)OC(=O)Nc1cnc2nc(-c3cc(NC(=O)c4ccco4)ccc3Cl)n(C(=O)OC(C)C)c2c1` next?
-0.83

Can you check `Nc1cnc2nc(-c3cc(NC(=O)c4ccco4)ccc3Cl)[nH]c2c1` next?
0.67

Can you check `CC(C)C(=O)Nc1cnc2nc(-c3cc(NC(=O)c4ccco4)ccc3Cl)[nH]c2c1` next?
0.57

Can you check `O=C(Nc1ccc(Cl)c(-c2nc3ncc(NC(=O)C4CC(F)(F)C4)cc3[nH]2)c1)c1ccco1` next?
0.87

Others:
Any idea what log10 of EC50 was measured for `O=C(Nc1ccc(Cl)c(-c2nc3ncc(NC(=O)C4CC4)cc3[nH]2)c1)c1ccc(F)o1` ?
0.01

Can you check `O=C(Nc1ccc(Cl)c(-c2nc3ncc(NC(=O)C4CC4)cc3[nH]2)c1)c1ccco1` next?
0.46

Can you check `CN1CCC(C(=O)Nc2cnc3nc(-c4cc(NC(=O)c5ccco5)ccc4Cl)[nH]c3c2)CC1` next?
1.28

Can you check `CC(C)(C)OC(=O)NCC1(C(=O)Nc2cnc3nc(-c4cc(NC(=O)c5ccco5)ccc4Cl)[nH]c3c2)CC1` next?
-0.61

Can you check O=C(Nc1ccc(Cl)c(-c2nc3ncc(NC(=O)C4CC(F)C4)cc3[nH]2)c1)c1ccco1 (stereo not shown) next?
0.64

###

tested on: Trypanosoma cruzi amastigotes cultured in 3T3 fibroblast cells; assay: Assay for proliferation of kinetoplastid parasite Trypanosoma cruzi (beta-galactosidase/CPRG readout); assay type: cell-based; settings: NIH3T3, 144 h, Tulahuen strain in 3T3 cells, 6 day incubation, read-out: T cruzi EC50
Listed here are compounds together with their documented EC50.
// units = nM; emit number, no label

Consider the reported EC50 for these compounds:
Any idea what EC50 was measured for `CCOC(=O)Nc1cnc2nc(-c3cccc(NC(=O)c4ccc(F)o4)c3)[nH]c2c1` ?
2230

Can you check `CC1(C)CC(C(=O)Nc2cnc3nc(-c4cc(NC(=O)c5ccco5)ccc4Cl)[nH]c3c2)C1` next?
1230

Can you check `CC(C)OC(=O)Nc1cnc2nc(-c3cc(NC(=O)c4ccc(C#N)o4)ccc3Cl)[nH]c2c1` next?
141

Proceeding to the next compound to report its EC50.
Any idea what EC50 was measured for `O=C(Nc1ccc(Cl)c(-c2nc3ncc(NC(=O)C4(C(F)(F)F)CCC4)cc3[nH]2)c1)c1ccc(F)o1` ?
153

// provenance: patent US9186361B2
